# ASSAYED SYSTEM: Phosphatidylinositol 4,5-bisphosphate 3-kinase catalytic subunit beta isoform (Homo sapiens)
# Sequence (P42338 whole entry, canonical isoform): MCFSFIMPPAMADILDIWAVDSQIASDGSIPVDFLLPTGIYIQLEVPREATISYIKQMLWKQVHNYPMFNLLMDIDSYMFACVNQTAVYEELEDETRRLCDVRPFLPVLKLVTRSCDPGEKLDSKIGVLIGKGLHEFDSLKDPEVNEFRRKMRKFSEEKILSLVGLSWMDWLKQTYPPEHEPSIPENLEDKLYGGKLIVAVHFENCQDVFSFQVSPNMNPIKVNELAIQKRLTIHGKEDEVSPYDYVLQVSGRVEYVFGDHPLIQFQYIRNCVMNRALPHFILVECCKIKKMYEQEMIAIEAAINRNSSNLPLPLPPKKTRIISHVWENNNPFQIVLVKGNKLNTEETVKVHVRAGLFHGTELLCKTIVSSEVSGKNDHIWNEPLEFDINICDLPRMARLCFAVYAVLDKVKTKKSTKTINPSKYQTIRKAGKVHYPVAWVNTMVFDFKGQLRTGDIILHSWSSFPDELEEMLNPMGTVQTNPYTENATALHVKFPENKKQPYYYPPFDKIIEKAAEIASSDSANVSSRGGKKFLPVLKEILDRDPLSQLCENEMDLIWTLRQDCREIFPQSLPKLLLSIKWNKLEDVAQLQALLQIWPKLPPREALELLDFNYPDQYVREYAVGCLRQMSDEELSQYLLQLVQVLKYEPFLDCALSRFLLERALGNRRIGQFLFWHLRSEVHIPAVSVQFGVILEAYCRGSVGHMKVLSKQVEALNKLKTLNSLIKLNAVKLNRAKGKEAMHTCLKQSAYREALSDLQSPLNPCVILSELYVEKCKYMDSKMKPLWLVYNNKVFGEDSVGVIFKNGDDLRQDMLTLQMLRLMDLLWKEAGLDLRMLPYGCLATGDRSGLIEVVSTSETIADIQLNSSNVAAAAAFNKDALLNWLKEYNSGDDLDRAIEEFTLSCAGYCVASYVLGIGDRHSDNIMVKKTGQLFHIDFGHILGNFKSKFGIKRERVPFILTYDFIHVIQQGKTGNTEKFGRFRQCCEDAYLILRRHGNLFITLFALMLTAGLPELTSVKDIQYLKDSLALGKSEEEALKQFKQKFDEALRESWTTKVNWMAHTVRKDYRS
# ASSAY: Inhibition of PI3Kbeta (unknown origin) after 40 mins by kinase-Glo reagent based luminescence assay
QUANTITY MEASURED: EC50 (µM)

compound_smiles=Oc1ccc(-c2n[nH]cc2-c2ccc(Cl)c(Cl)c2)c(O)c1O reported_result=5.7

###

# ASSAYED SYSTEM: Phosphatidylinositol 4,5-bisphosphate 3-kinase catalytic subunit gamma isoform (Homo sapiens, UniProt P48736)
# Sequence (P48736 whole entry, canonical isoform): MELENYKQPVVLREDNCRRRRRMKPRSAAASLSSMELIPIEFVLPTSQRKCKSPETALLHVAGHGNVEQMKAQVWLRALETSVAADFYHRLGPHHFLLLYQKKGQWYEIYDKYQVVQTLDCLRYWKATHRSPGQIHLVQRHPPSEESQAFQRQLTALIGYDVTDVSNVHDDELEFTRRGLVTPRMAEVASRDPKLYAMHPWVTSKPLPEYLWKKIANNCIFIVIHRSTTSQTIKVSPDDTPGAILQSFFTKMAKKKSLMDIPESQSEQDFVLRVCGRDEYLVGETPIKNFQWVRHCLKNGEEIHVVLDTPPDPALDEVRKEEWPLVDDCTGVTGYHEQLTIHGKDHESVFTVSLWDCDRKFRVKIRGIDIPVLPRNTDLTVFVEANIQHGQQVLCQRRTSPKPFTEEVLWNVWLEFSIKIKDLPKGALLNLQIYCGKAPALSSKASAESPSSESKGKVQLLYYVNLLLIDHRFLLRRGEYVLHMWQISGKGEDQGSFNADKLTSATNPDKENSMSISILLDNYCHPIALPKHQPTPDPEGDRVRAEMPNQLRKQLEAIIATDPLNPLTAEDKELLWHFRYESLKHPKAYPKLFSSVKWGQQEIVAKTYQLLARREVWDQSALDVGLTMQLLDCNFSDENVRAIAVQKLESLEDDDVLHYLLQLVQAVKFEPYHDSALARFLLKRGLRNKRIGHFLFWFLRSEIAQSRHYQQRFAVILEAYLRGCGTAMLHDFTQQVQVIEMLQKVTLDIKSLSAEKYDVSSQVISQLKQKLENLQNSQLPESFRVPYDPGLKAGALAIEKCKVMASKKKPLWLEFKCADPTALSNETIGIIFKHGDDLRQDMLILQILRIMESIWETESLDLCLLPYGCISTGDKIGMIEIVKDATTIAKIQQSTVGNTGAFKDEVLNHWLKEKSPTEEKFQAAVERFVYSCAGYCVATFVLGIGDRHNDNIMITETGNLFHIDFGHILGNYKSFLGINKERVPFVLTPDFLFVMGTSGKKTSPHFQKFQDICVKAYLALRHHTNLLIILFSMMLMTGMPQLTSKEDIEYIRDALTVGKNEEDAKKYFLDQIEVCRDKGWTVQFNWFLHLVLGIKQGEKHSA
# ASSAY: Inhibition of PI3Kgamma (unknown origin) after 40 mins by kinase-Glo reagent based luminescence assay
pEC50: −log10 of the molar value.
QUANTITY MEASURED: pEC50

compound_smiles=Oc1ccc(-c2n[nH]cc2-c2ccc(Cl)c(Cl)c2)c(O)c1O reported_result=5.00

###

# ASSAYED SYSTEM: Phosphatidylinositol 4,5-bisphosphate 3-kinase catalytic subunit alpha isoform (Homo sapiens, UniProt P42336, H1047R)
# Sequence (P42336 whole entry H1047R, canonical isoform): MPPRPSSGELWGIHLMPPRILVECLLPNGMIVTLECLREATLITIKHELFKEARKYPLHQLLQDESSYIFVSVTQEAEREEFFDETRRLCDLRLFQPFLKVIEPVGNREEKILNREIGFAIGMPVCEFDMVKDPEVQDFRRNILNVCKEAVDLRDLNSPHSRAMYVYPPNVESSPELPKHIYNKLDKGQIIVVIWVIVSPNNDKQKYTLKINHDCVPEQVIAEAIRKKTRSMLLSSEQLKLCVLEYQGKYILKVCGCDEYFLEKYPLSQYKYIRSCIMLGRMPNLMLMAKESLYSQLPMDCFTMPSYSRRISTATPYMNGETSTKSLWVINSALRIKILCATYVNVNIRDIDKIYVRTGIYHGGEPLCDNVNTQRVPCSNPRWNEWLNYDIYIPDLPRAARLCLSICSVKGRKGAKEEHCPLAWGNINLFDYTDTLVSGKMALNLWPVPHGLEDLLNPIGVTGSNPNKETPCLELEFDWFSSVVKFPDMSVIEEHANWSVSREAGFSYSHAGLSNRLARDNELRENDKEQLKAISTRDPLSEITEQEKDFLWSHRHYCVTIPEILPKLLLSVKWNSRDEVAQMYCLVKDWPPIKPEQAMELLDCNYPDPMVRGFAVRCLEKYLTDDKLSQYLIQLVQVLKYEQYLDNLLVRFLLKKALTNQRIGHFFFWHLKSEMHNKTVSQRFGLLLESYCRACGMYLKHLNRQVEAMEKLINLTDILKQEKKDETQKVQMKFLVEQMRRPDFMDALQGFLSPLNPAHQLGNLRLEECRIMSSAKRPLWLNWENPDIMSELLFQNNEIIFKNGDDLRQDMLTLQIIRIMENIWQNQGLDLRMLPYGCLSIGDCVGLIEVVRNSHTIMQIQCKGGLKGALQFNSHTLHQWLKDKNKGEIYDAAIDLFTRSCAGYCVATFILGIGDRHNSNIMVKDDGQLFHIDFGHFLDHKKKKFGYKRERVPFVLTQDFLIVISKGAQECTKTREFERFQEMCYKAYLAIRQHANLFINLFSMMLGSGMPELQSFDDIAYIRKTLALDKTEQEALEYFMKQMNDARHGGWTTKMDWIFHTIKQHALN
# ASSAY: Inhibition of PI3Kalpha H1047R mutant (unknown origin) by HTRF assay
Exam item: assign yes to entries whose EC50 is below 70 µM and no to entries at or above 70 µM. Note that a value of exactly 70 µM receives no.

compound_smiles=O=C(Cc1ccc(Cl)c(Cl)c1)c1ccc(O)c(O)c1O class_label=yes
compound_smiles=O=C(Cc1ccc(Cl)cc1)c1ccc(O)cc1O class_label=no
compound_smiles=O=C(Cc1ccc(F)cc1)c1ccc(O)c(O)c1O class_label=no
compound_smiles=O=C(Cc1cccc(Cl)c1)c1ccc(O)c(O)c1O class_label=no
compound_smiles=O=C(Cc1ccc(Cl)cc1)c1c(O)cc(O)cc1O class_label=no
compound_smiles=O=C(Cc1ccccc1Cl)c1ccc(O)c(O)c1O class_label=no
compound_smiles=O=C(Cc1ccc(F)c(Cl)c1)c1ccc(O)c(O)c1O class_label=yes
compound_smiles=O=C(Cc1ccccc1F)c1ccc(O)c(O)c1O class_label=no
compound_smiles=O=C(Cc1ccc(Cl)cc1)c1cccc(O)c1O class_label=no
compound_smiles=COc1ccc(CC(=O)c2ccc(O)c(O)c2O)cc1OC class_label=no
compound_smiles=O=C(Cc1ccc(C(F)(F)F)cc1)c1ccc(O)c(O)c1O class_label=yes

###

# ASSAYED SYSTEM: Phosphatidylinositol 4,5-bisphosphate 3-kinase catalytic subunit alpha isoform (Homo sapiens, UniProt P42336)
# Sequence (P42336 whole entry, canonical isoform): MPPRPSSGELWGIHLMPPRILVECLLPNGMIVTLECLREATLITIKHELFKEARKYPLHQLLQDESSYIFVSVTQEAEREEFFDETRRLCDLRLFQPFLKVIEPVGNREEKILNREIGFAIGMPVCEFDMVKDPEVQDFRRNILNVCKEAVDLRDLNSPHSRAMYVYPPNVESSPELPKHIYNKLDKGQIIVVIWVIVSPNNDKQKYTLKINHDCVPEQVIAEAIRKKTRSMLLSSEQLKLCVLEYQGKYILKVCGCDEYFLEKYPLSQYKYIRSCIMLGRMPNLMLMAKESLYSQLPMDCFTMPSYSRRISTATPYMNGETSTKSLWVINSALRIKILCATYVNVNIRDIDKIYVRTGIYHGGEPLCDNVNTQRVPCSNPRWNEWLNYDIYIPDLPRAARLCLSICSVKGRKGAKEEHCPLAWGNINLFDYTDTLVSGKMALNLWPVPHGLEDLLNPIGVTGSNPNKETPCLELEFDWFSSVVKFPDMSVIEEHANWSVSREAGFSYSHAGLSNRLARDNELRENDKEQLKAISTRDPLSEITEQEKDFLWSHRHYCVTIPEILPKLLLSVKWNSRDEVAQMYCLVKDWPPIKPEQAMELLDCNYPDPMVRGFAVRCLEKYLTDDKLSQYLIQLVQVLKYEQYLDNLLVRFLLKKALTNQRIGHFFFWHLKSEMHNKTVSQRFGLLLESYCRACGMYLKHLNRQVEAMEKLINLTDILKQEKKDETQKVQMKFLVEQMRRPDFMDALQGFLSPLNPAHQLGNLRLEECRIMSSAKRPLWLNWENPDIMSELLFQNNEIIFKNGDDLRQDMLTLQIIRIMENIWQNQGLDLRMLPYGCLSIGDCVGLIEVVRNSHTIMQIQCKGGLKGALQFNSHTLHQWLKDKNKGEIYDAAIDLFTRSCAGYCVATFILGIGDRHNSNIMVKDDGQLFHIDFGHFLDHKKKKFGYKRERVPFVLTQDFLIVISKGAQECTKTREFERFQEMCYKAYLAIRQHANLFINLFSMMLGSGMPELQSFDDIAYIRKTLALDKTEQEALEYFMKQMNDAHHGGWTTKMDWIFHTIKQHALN
# ASSAY: Inhibition of wild type PI3Kalpha (unknown origin) after 40 mins by kinase-Glo reagent based luminescence assay
Reported EC50 is given for each of the following compounds.
QUANTITY MEASURED: EC50 (µM)

compound_smiles=O=C(Cc1ccc(Cl)cc1)c1c(O)cc(O)cc1O quantity_measured=EC50 reported_result=79.3
compound_smiles=O=C(Cc1ccc(Cl)cc1)c1ccc(O)c(O)c1O quantity_measured=EC50 reported_result=35.2

###

# ASSAYED SYSTEM: Phosphatidylinositol 4,5-bisphosphate 3-kinase catalytic subunit delta isoform (Homo sapiens)
# Sequence (O00329 whole entry): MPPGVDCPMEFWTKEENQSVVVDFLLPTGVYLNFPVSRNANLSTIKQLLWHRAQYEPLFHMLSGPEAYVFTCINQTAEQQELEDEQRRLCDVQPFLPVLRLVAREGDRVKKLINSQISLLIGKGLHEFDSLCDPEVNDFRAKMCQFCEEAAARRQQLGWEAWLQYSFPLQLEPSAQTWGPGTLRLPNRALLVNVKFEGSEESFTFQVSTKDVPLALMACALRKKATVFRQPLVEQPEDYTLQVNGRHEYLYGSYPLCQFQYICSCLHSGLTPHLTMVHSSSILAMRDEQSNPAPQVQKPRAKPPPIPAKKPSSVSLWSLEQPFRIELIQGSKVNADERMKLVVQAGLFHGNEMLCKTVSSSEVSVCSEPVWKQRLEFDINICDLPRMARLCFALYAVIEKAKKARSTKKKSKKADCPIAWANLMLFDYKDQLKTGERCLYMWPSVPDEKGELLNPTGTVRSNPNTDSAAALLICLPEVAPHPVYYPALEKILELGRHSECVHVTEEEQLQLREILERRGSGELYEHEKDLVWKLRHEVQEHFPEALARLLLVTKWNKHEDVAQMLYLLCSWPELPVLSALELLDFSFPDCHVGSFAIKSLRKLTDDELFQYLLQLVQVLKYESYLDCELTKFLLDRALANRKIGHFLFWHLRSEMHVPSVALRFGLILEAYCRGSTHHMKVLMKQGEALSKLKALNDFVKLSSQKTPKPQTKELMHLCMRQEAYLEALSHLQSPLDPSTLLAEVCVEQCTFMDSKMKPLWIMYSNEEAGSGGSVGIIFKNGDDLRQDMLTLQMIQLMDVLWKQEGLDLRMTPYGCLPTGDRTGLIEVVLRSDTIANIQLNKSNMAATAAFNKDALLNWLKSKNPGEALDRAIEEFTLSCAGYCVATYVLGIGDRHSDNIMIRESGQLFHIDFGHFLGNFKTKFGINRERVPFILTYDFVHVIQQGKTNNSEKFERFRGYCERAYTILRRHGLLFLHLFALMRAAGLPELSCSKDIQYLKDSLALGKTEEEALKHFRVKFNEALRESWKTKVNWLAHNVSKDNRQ
# ASSAY: Inhibition of PI3Kdelta (unknown origin) after 40 mins by kinase-Glo reagent based luminescence assay
QUANTITY MEASURED: EC50 (µM)

compound_smiles=Oc1ccc(-c2n[nH]cc2-c2ccc(Cl)c(Cl)c2)c(O)c1O quantity_measured=EC50 reported_result=19.1
